Biological target: T1, human GIP receptor (human, UniProt P48546 22-466)
T1 sequence (looked up): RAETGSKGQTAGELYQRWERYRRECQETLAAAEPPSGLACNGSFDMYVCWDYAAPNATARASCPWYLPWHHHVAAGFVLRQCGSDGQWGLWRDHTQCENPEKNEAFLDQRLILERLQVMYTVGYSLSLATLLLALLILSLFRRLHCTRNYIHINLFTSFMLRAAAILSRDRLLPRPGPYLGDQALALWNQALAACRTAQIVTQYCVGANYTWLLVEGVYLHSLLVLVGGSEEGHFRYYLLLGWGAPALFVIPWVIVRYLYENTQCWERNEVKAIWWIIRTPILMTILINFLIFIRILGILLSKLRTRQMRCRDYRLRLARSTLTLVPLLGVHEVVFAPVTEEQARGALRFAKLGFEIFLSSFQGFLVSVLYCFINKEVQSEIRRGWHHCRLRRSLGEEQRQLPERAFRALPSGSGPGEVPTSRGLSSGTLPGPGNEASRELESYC
Experiment: cell-based or functional assay
Non-standard residues stand in square brackets, D forms with d. Groups on a side chain read outwards from the residue. No end group written: not given here. *: point of attachment. C18 diacid = O=C(O)CCCCCCCCCCCCCCCCC(=O)*; AEEA = NCCOCCOCC(=O)O; Aib = CC(C)(N)C(=O)O
Rule: EC50, CreLuc assay, 100% hP below 2 nM gives class 1. Equal to or above 2 nM gives class 0.

BINDER	CLASS
YXEGTFTSDYSIXLEKQAQXAFVEWLIKGGPSSGADLRHYLNWLTRQRY (Aib at 2, 13, 20; K28 side chain: C20DA-gGlu-gGlu-gGlu-gGlu-gGlu-gGlu-eLys; C-terminal NH2) [Compound 72]	class 0
YXEGTFTSDYSIXLEKQAQXAFVQWLIKGGQRSYASLRHYYNWLTRQRY (Aib at 2, 13, 20; K28 side chain: C20DA-gGlu-gGlu-gGlu-gGlu-gGlu-gGlu-eLys; C-terminal NH2) [Compound 3]	class 0
YXEGTFTSDYSIXLEKQAQXAFVEWLIKGGPSSGIELRHFLNHLTRQRY (Aib at 2, 13, 20; K28 side chain: C20DA-gGlu-gGlu-gGlu-gGlu-gGlu-gGlu-eLys; C-terminal NH2) [Compound 2]	class 1
YXEGTFTSDYSIXLEKQAQXAFVEWLIKGGPSSGASXRHYXNWLTRQRY (Aib at 2, 13, 20, 37, 41; K28 side chain: C20DA-gGlu-gGlu-Glu-gGlu-gGlu-gGlu-eLys; C-terminal NH2) [Compound 76]	class 1

INPUT: Take the binder Y[Aib]EGTFTSDYSI[Aib]LEKQAQ[Aib]AFVQWLIK([AEEA-AEEA-Glu-Glu-Glu-Glu-C18 diacid])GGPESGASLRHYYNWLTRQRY-NH2 (also: TFA salt) [Compound 52] and say whether its EC50, CreLuc assay, 100% hP is less than 2 nM.
OUTPUT: class 1
